Molecular target: T1, B-cat-Halo (UniProt P35222 1-781)
T1 sequence (looked up): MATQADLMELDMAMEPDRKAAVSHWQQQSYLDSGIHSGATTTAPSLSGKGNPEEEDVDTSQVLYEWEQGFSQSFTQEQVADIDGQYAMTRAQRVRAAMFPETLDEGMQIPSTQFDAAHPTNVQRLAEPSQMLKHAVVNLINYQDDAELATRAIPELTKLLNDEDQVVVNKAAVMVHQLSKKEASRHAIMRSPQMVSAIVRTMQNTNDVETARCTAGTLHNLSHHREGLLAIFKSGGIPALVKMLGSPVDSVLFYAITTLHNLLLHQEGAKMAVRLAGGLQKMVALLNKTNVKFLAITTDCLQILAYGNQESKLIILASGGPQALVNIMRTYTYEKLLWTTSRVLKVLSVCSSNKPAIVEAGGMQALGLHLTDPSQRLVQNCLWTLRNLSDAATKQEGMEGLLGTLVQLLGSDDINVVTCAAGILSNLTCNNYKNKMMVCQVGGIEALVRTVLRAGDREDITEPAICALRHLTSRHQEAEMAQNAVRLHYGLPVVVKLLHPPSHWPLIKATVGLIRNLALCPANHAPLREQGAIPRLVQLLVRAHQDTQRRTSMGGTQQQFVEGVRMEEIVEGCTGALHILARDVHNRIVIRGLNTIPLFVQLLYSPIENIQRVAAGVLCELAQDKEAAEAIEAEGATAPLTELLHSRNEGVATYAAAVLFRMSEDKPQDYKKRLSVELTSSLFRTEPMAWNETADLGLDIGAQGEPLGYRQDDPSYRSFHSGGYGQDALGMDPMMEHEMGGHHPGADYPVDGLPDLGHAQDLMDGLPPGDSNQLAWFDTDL
Test: cell-based or functional assay
Starred links: 1 amine or outer side, 2 acyl side, 3 side chain; linkers in the order of their positions; H or OH if unused. Positions of bridges follow the written chain, without caps; N, C: chain ends. Non-standard residues stand in square brackets, D forms with d. Primed or numbered codes have the meaning given here. PyrS2″ = (S)-3-amino-1-((pent-4-en-1-yloxy)carbonyl)pyrrolidine-3-carboxylic acid (stapling residue), C=CCCCOC(=O)N1CC[C@@](N[*:1])(C(=O)[*:2])C1; B5(5) = 2,2-bis(4-pentenyl)glycine, 2-amino-2-(pent-4-en-1-yl)hept-6-enoic acid (stitching residue), C=CCCCC(CCCC=C)(N[*:1])C(=O)[*:2]; TfeGA = (S)-2-amino-3-((carboxymethyl)(2,2,2-trifluoroethyl)amino)propanoic acid, O=C([C@H](CN(CC(=O)[*:3])CC(F)(F)F)N[*:1])[*:2]; Bta = N[C@@H](Cc1csc2ccccc12)C(=O)O; αAllylPro = C=CC[C@@]1(C(=O)O)CCCN1; tBuAla = CC(C)(C)C[C@H](N)C(=O)O; 3Thi = N[C@@H](Cc1ccsc1)C(=O)O
Property: NanoBRET Abs IC50; scope: individual binders
Your answer is read as µM, so omit the unit and give the number.

{"binder": "Ac-[αAllylPro]D[tBuAla][B5(5)]D[TfeGA]AAFL[PyrS2″][3Thi][Bta]F-NH2 (staple 1-4, 4-11) [I-1750]", "scale.unit": "µM", "NanoBRET Abs IC50": 23.7}

Next, consider the following binder.
Need NanoBRET Abs IC50 of Ac-[αAllylPro]D[tBuAla][B5(5)]D[TfeGA]AAFL[PyrS2″][3Thi][Bta]L-NH2 (staple 1-4, 4-11) [I-1748] , thanks.
20.2
